Test system: Plasmodium falciparum
Test: Antiplasmodial activity against Plasmodium falciparum harboring wild type pfmdr-1-86 gene after 18 hrs by [3H]hypoxanthine incorporation assay
Assay type: functional, organism-based
Reported property: IC50 (nM)
Answer format: numeric, nM implied, no suffix.

## Task # get_value(readout='IC50', item= C[C@H]1[C@@H](O)O[C@@H]2O[C@@]3(C)CC[C@H]4[C@H](C)CC[C@@H]1[C@@]24OO3 )
## Result 3

## Task What do you have for CCCCN(CCCC)CC(O)c1cc(Cl)cc2c1-c1ccc(Cl)cc1/C2=C/c1ccc(Cl)cc1 (configuration not stated) ?
## Result 124

====

Test system: Plasmodium falciparum
Experiment: Antiplasmodial activity against multidrug-resistant Plasmodium falciparum […] after 18 hrs by [3H]hypoxanthine incorporation assay
Type: functional, organism-based
Reported property: IC50 (µM)
Answer format: numeric, µM implied, no suffix.

## Task # get_value(readout='IC50', item= C[C@H]1[C@@H](O)O[C@@H]2O[C@@]3(C)CC[C@H]4[C@H](C)CC[C@@H]1[C@@]24OO3 )
## Result 0.002

## Task What do you have for Clc1ccc2c(N3CCN(CCCN4CCN(c5ccnc6cc(Cl)ccc56)CC4)CC3)ccnc2c1 ?
## Result 0.042

## Task What do you have for CCCCN(CCCC)CC(O)c1cc(Cl)cc2c1-c1ccc(Cl)cc1/C2=C/c1ccc(Cl)cc1 (stereo not drawn) ?
## Result 0.024

====

Test system: Plasmodium falciparum
Assay: Antiplasmodial activity against Plasmodium falciparum harboring wild type pfcrt-76 gene after 18 hrs by [3H]hypoxanthine incorporation assay
Assay type: functional, organism-based
Reported property: IC50

## Task # get_value(readout='IC50', item= Clc1ccc2c(N3CCN(CCCN4CCN(c5ccnc6cc(Cl)ccc56)CC4)CC3)ccnc2c1 )
## Result 35 nM

====

Tested on: Plasmodium falciparum
Test: Antiplasmodial activity against Plasmodium falciparum harboring mutant pfcrt-76 gene after 18 hrs by [3H]hypoxanthine incorporation assay
Assay type: functional, organism-based
Kindly supply the reported pIC50 values for the records listed here.
In plain terms, pIC50 is the concentration in mol/L turned into minus its base-10 logarithm.

## Task # get_value(readout='pIC50', item= CCCCN(CCCC)CC(O)c1cc(Cl)cc2c1-c1ccc(Cl)cc1/C2=C/c1ccc(Cl)cc1 (centres undefined) [LUMEFANTRINE] )
## Result 7.37

## Task What do you have for CCN(CC)CCCC(C)Nc1ccnc2cc(Cl)ccc12 (centres undefined) [CHLOROQUINE] ?
## Result 7.24

## Task What do you have for Clc1ccc2c(N3CCN(CCCN4CCN(c5ccnc6cc(Cl)ccc56)CC4)CC3)ccnc2c1 [PIPERAQUINE] ?
## Result 7.42
